# conditionSet: in isobutanol, 293.15 K

{"smilesStr": "COc1ccc(C(=O)c2ccc(OC)cc2)cc1", "solubility (mole fraction)": 0.00101}

---

# conditionSet: in isobutanol, 308.15 K
assayReadout: solubility (mole fraction)

{"smilesStr": "COc1ccc(C(=O)c2ccc(OC)cc2)cc1", "recordedResult": 0.00237}

---

# conditionSet: in n-propanol, 313.15 K

{"smilesStr": "COc1ccc(C(=O)c2ccc(OC)cc2)cc1", "solubility (mole fraction)": 0.00314}

---

# conditionSet: in n-propyl acetate, 298.15 K
assayReadout: solubility (mole fraction)

{"smilesStr": "COc1ccc(C(=O)c2ccc(OC)cc2)cc1", "assayReadout": "solubility (mole fraction)", "recordedResult": 0.0112}

---

# conditionSet: in methanol, 328.15 K

{"smilesStr": "COc1ccc(C(=O)c2ccc(OC)cc2)cc1", "solubility (mole fraction)": 0.0037}

---

# conditionSet: in isobutanol, 328.15 K
assayReadout: solubility (mole fraction)

{"smilesStr": "COc1ccc(C(=O)c2ccc(OC)cc2)cc1", "recordedResult": 0.00718}

---

# conditionSet: in n-butanol, 298.15 K

{"smilesStr": "COc1ccc(C(=O)c2ccc(OC)cc2)cc1", "solubility (mole fraction)": 0.00164}

---

# conditionSet: in ethanol, 293.15 K

{"smilesStr": "COc1ccc(C(=O)c2ccc(OC)cc2)cc1", "solubility (mole fraction)": 0.00091}

---

# conditionSet: in ethanol, 313.15 K
assayReadout: solubility (mole fraction)

{"smilesStr": "COc1ccc(C(=O)c2ccc(OC)cc2)cc1", "assayReadout": "solubility (mole fraction)", "recordedResult": 0.0024}

---

# conditionSet: in methanol, 298.15 K
assayReadout: solubility (mole fraction)

{"smilesStr": "COc1ccc(C(=O)c2ccc(OC)cc2)cc1", "recordedResult": 0.00081}

---

# conditionSet: in isopropanol, 293.15 K
assayReadout: solubility (mole fraction)

{"smilesStr": "COc1ccc(C(=O)c2ccc(OC)cc2)cc1", "recordedResult": 0.00079}
